Form field: melting point (one value per entry).

Use these answered entries as a reference point.
{"columns": ["smiles.string", "melting point"],
 "data": [
  ["CC(=O)Oc1c(C)nn(C)c(=O)c1-c1c(C)ccc2cc(C)oc12", "93 to 96 °C"],
  ["CCOC(=O)Oc1c(C)nn(C)c(=O)c1-c1c(C)ccc2sccc12", "103 to 107 °C"],
  ["Cc1cc2ccc(C)c(-c3c(O)c(C)nn(C)c3=O)c2o1", "194 to 199 °C"]
]}

# next molecule below
## Task If you can, please state the reported melting point value of "Cc1nn(C)c(=O)c(-c2cccc3snc(C)c23)c1O" .
## Result 115 to 118 °C
